# target desc: PABPC (PABPC1 RRM1-4) (Homo sapiens, UniProt P11940 1-370)
# Sequence (P11940 1-370): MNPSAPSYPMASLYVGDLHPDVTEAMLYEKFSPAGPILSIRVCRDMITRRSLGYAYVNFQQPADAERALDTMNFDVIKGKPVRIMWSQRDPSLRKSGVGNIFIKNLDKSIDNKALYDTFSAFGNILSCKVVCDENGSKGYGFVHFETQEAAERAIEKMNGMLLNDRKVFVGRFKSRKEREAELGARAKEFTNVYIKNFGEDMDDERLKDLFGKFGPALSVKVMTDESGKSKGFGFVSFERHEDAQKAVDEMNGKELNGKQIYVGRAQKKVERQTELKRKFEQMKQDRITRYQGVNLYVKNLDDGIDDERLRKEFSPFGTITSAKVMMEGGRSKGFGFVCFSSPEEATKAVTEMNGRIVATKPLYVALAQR
# protocol details: EMSA; RNA 10 nM; 1x binding buffer: 100 mM NaCl, 5 mM MgCl2, 0.5 mM EDTA, 0.01% NP-40, 0.1 mg/mL BSA (from 10x stock), 5% glycerol from RNA mix plus glycerol/PBS from protein stock; pH not stated; 15 min at room temperature; 6% native gel with 0.01% Triton X-100 at 4 C
# conditions: protein: commercial; tags: N-terminal 6xHis-SUMO; label: 3' Cy5
measurement name: Kd

Input: Give the measured Kd of AAAAAAAAAAAAAAA (ssRNA) [unmodified poly(A)15] .
Output: 110 nM
